Give measured inhibition of C3a and C5a generation during hemolysis, IC50 for each item. Keep answers brief.
# ASSAY_TARGET: human complement C3b protein (human, UniProt P01024 23-667; P01024 749-1663)
# Sequence (P01024 23-667 P314L, chain 1 of 2): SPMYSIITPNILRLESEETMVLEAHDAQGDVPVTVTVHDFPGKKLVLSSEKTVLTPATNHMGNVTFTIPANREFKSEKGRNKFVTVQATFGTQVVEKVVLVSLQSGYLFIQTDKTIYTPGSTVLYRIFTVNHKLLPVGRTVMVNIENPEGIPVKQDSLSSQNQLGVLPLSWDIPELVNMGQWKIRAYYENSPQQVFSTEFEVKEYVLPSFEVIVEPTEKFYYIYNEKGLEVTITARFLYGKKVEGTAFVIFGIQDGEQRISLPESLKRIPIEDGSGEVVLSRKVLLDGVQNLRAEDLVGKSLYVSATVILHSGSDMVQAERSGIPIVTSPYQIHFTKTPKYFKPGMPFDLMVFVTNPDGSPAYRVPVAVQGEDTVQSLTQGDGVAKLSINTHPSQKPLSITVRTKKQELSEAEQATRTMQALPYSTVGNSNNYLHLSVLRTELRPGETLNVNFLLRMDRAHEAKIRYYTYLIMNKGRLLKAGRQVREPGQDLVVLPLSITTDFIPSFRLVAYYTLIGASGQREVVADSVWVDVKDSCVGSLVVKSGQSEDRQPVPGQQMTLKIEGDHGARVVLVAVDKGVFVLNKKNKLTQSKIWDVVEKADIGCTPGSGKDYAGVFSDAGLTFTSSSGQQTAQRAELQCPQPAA
# Sequence (P01024 749-1663, chain 2 of 2): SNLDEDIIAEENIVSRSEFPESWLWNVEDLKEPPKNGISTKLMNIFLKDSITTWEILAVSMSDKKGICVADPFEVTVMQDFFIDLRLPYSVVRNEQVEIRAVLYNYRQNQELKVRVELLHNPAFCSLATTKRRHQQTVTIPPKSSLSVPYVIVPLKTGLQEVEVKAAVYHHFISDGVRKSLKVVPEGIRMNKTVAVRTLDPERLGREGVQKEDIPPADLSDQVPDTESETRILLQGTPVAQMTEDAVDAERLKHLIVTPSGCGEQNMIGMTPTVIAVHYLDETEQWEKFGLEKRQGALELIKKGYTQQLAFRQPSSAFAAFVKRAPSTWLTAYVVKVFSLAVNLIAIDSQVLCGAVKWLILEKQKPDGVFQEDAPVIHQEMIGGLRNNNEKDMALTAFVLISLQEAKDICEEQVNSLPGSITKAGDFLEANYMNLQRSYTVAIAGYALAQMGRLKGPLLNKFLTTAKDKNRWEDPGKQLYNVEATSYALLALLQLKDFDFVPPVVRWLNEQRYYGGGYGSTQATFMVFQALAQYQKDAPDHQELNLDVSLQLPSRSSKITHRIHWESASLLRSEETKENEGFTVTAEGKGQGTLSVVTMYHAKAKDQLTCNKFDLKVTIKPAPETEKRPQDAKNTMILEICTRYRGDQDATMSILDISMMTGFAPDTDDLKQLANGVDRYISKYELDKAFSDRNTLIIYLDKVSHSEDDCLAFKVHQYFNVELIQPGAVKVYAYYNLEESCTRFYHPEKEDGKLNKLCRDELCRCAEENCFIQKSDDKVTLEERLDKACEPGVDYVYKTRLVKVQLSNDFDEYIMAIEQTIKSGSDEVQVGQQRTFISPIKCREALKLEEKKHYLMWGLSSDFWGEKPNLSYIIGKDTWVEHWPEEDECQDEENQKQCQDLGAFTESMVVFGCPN
# ASSAY_NAME: cell-based or functional assay

Query block: Please give the measured inhibition of C3a and C5a generation during hemolysis, IC50 for this binder: MOR09612 IgG (antibody, V domains shown, Germlined human IgG1 with leucines 234 and 235 changed to alanines, kappa; also called antibody 9612) VH: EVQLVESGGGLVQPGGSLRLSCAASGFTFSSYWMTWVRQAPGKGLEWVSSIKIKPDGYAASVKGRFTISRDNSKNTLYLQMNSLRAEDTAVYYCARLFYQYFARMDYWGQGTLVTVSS VL: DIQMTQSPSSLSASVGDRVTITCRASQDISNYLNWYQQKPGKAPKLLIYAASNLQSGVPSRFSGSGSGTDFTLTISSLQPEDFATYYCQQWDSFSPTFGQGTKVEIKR
Result block: ≤ 50 nM

Query block: // query: MOR09675 IgG (antibody, V domains shown, Germlined human IgG1 with leucines 234 and 235 changed to alanines, kappa; also called antibody 9675) VH: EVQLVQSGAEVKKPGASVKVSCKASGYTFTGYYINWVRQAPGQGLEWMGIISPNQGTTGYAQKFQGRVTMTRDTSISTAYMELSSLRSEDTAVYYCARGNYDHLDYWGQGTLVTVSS VL: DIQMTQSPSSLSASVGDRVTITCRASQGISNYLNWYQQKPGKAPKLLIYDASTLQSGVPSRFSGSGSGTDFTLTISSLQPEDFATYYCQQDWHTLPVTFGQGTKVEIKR
Result block: ≤ 50 nM

Query block: // query: MOR09610 IgG (antibody, V domains shown, Germlined human IgG1 with leucines 234 and 235 changed to alanines, kappa; also called antibody 9610) VH: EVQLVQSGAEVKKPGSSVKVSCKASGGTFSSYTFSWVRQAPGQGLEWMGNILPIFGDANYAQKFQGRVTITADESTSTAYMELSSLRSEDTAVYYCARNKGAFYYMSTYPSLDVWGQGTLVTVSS VL: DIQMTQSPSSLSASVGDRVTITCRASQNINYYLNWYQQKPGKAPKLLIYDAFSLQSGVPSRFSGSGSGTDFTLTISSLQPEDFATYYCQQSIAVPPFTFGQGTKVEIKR
Result block: ≤ 50 nM
